# assay.system: Cyclin-dependent kinase 2 (Homo sapiens, UniProt P24941)
quantity.name: pIC50
One number for each entry, as −log10 of the molar value.

Returns the measured pIC50 for the input compound. Input: O=C(NC1=NNC2=CC=CC21)C1CC1 (stereo unspecified) 8.30
